B1: LINE1-full (parent)
chain: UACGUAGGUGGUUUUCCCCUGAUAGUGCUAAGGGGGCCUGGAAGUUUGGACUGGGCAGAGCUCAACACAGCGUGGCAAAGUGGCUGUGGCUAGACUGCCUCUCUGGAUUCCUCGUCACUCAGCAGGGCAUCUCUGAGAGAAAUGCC

variants of: B1; experiment: self-cleavage, relative activity (ratio to wild type); higher = more cleavage; in vitro, sequencing; the parent is a self-cleaving ribozyme
assay endpoint: self-cleavage
Respond numerically, and do not add a unit to the figure.

// worked examples, self-cleavage included
- mutant id: "U47A U143G"
  self-cleavage: 1.2
- mutant id: "G86A A142G"
  self-cleavage: 0.06
- mutant id: "A107G G126U"
  self-cleavage: 1.48
- mutant id: "A117G A124G"
  self-cleavage: 0.69
- mutant id: "C123U U130A"
  self-cleavage: 1.72

// recorded self-cleavage for U15C C128U : 1.1

// recorded self-cleavage for A43C C99U : 0.98

// recorded self-cleavage for A24G A57G : 1.14

// recorded self-cleavage for A30U U108C : 0.41

// recorded self-cleavage for U62C A79G : 0.06

// recorded self-cleavage for A117G A121G : 1.38
